tested on: A549; test: Cytotoxicity against human A549 cells assessed as cell viability after 48 hrs; type: functional, cell-based; conditions: A549, 48 h
RECORDED_METRIC: pIC50
Remember, pIC50 is on a log scale: it is -log10 of the molar concentration.

Query the reported pIC50 for A549; item: CC1(C)CC[C@]23CC[C@]4(C)[C@H](CC[C@@H]5[C@@]6(C)CC[C@H](O[C@@H]7O[C@H](CO)[C@@H](O)[C@H](O)[C@H]7O)C(C)(C)[C@@H]6CC[C@]54C)[C@H]2[C@@H]1OC3 4.51

* * *

system: A549; experiment: Cytotoxicity against human A549 cells assessed as cell viability after 48 hrs; format: functional, cell-based; conditions: A549, 48 h
RECORDED_METRIC: pIC50
Recall that pIC50 is obtained by taking minus log10 of the concentration measured in molar.

What value of pIC50 has been recorded for this entry: CC1(C)CC[C@]23CC[C@]4(C)[C@H](CC[C@@H]5[C@@]6(C)CC[C@H](O[C@@H]7O[C@H](CO)[C@H](O)[C@H](O)[C@H]7O)C(C)(C)[C@@H]6CC[C@]54C)[C@H]2[C@@H]1OC3 4.52

Origin of measurements: ChEMBL document CHEMBL1149652
